Value source: the supplement of paper PMC6135742

Tested on: jimpy (Plp1 jimpy) mouse iPSC-derived oligodendrocyte progenitor cells;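 note: 10 µM single dose with 3-day oligodendrocyte differentiation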
ASSAY_DETAILS: MBP+ mature oligodendrocyte number relative to DMSO vehicle control (SDs above negative control mean); higher = more surviving jimpy oligodendrocytes (rescue)
CONDITION: 10 µM; 3 days
Where a name gives a salt, the structure may show the parent alone. In all, about 2,600 compounds were measured (“MBP+ mature oligodendrocyte number relative to DMSO vehicle control”: median about -0.34, highest 2% from about 13 on). For the sample, the highest values were picked, then their nearest neighbours and some compounds at random.
Documented MBP+ mature oligodendrocyte number across a set of molecules
REPORTED_PROPERTY: MBP+ mature oligodendrocyte number

| MOLECULE | READING_QUALIFIER | READOUT_VALUE |
| --- | --- | --- |
| CN(C)C(=O)c1ccc(S(=O)(=O)c2ccc(NC(=O)[C@@](C)(O)C(F)(F)F)c(Cl)c2)cc1 | = | 19.5 |
| O=C(Nc1cccnc1)N1CCC(Cc2cccc(Oc3ccc(C(F)(F)F)cn3)c2)CC1 | = | 19.5 |
| Cn1ccc2cc3c(cc21)CCN3C(=O)Nc1cccnc1 | = | 0.574 |
| O=C(Nc1cccnc1)N1CCC(Cc2cccc(Oc3ccc(C(F)(F)F)cn3)c2)CC1 [PF 3845 hydrate] | = | 10.1 |
| CCCCOc1ccc(C(=O)CCN2CCCCC2)cc1 [Dyclonine HCl] | = | -1.91 |
| CN(C)C1CCN(C(=O)c2ccc(NC(=O)Nc3ccc(-c4nc(N5CCOCC5)nc(N5CCOCC5)n4)cc3)cc2)CC1 | < | -6.01 |
| O=C(Cc1ccc(-c2ccc(OCCN3CCOCC3)cc2)cn1)NCc1ccccc1 | = | -5.77 |
| CO/N=C(\C(=O)N[C@@H]1C(=O)N2C(C(=O)O)=C(Cn3ccc(=N)n3CCO)CS[C@H]12)c1csc(N)n1 [Cefoselis Sulfate] | = | 0.982 |
| Oc1c2ccccc2c2c3c(cccc13)N=N2 | = | -2.59 |

###

System: jimpy (Plp1 jimpy) mouse iPSC-derived oligodendrocyte progenitor cells;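 note: 10 µM single dose with 3-day oligodendrocyte differentiation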
ASSAY_DETAILS: MBP+ mature oligodendrocyte number relative to DMSO vehicle control (SDs above negative control mean); higher = more surviving jimpy oligodendrocytes (rescue)
CONDITION: 10 µM; 3 days
Counter-ions that a name gives are not always drawn. Over roughly 2,600 compounds, “MBP+ mature oligodendrocyte number relative to DMSO vehicle control” has its median near -0.34; the highest 2% begin near 13. The sample as a whole holds a higher share of the highest values than the screen did.
Documented MBP+ mature oligodendrocyte number across a set of compounds
REPORTED_PROPERTY: MBP+ mature oligodendrocyte number

| COMPOUND | TARGET_UNDER_TEST | REPORTED_PROPERTY | READING_QUALIFIER | READOUT_VALUE |
| --- | --- | --- | --- | --- |
| Cc1nn(-c2ccccc2)c(C)c1C=NN1CCN(Cc2ccccc2)CC1 | jimpy (Plp1 jimpy) mouse iPSC-derived oligodendrocyte progenitor cells | MBP+ mature oligodendrocyte number | = | 14.2 |
| Cc1cccc(CN2CCN(C(c3ccccc3)c3ccc(Cl)cc3)CC2)c1 (centres undefined) [Meclizine 2HCl] | jimpy (Plp1 jimpy) mouse iPSC-derived oligodendrocyte progenitor cells | MBP+ mature oligodendrocyte number | = | -4.88 |
| CCCc1cc(C)[nH]c(=O)c1CNC(=O)c1cc(-c2ccc(N3CCN(C(C)C)CC3)nc2)cc2c1cnn2C(C)C | jimpy (Plp1 jimpy) mouse iPSC-derived oligodendrocyte progenitor cells | MBP+ mature oligodendrocyte number | < | -6.35 |
| CC(=O)OC[C@H]1O[C@@H]([S-])[C@H](OC(C)=O)[C@@H](OC(C)=O)[C@@H]1OC(C)=O.CCP(CC)CC.[Au+] [Auranofin] | jimpy (Plp1 jimpy) mouse iPSC-derived oligodendrocyte progenitor cells | MBP+ mature oligodendrocyte number | < | -3.85 |
| Cc1cc(C)c(CNC(=O)c2cc(-c3ccc(CN4CCOCC4)cc3)cc3c2cnn3C2CCCC2)c(=O)[nH]1 | jimpy (Plp1 jimpy) mouse iPSC-derived oligodendrocyte progenitor cells | MBP+ mature oligodendrocyte number | = | 30.2 |
| O=C(O)c1ccccc1 [Benzoic Acid] | jimpy (Plp1 jimpy) mouse iPSC-derived oligodendrocyte progenitor cells | MBP+ mature oligodendrocyte number | = | 0.66 |
| C[N+]1(C)CCC(OC(=O)C(c2ccccc2)c2ccccc2)CC1 [4-DAMP methiodide] | jimpy (Plp1 jimpy) mouse iPSC-derived oligodendrocyte progenitor cells | MBP+ mature oligodendrocyte number | = | 2.86 |
| C[N+]1(C)CCC(OC(=O)C(c2ccccc2)c2ccccc2)CC1 | jimpy (Plp1 jimpy) mouse iPSC-derived oligodendrocyte progenitor cells | MBP+ mature oligodendrocyte number | = | 0.467 |
| c1ccc(CN2CCC3(CCCc4ccccc43)CC2)cc1 [L-687,384 hydrochloride] | jimpy (Plp1 jimpy) mouse iPSC-derived oligodendrocyte progenitor cells | MBP+ mature oligodendrocyte number | = | 0.735 |

###

Test system: jimpy (Plp1 jimpy) mouse iPSC-derived oligodendrocyte progenitor cells;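 note: 10 µM single dose with 3-day oligodendrocyte differentiation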
ASSAY_DETAILS: MBP+ mature oligodendrocyte number relative to DMSO vehicle control (SDs above negative control mean); higher = more surviving jimpy oligodendrocytes (rescue)
CONDITION: 10 µM; 3 days
Structures can show the parent of a compound that is named as a salt. Whole data set: some 2,600 compounds, median “MBP+ mature oligodendrocyte number relative to DMSO vehicle control” near -0.34, cut for the highest 2% near 13. The list comes from a sample in which the highest values are over-represented; it also holds close analogues and randomly drawn compounds.
Entry flag: fulfilled if MBP+ mature oligodendrocyte number reaches 0.07; not fulfilled if it does not.

| COMPOUND | TARGET_UNDER_TEST | CAT |
| --- | --- | --- |
| CC(O)C(O)[C@H]1CNc2nc(N)[nH]c(=O)c2N1 (stereo partly drawn) [(6R)-5,6,7,8-Tetrahydro-L-biopterin hydrochloride] | jimpy (Plp1 jimpy) mouse iPSC-derived oligodendrocyte progenitor cells | not fulfilled |
| Fc1ccc2[nH]c(CN3CCN(c4ccccn4)CC3)cc2c1 | jimpy (Plp1 jimpy) mouse iPSC-derived oligodendrocyte progenitor cells | not fulfilled |
| CC(=O)O[C@]1(C(C)=O)CC[C@H]2[C@@H]3C=C(Cl)C4=CC(=O)[C@@H]5C[C@@H]5[C@]4(C)[C@H]3CC[C@@]21C [Cyproterone Acetate] | jimpy (Plp1 jimpy) mouse iPSC-derived oligodendrocyte progenitor cells | fulfilled |
| Clc1ccc(COC(Cn2ccnc2)c2ccc(Cl)cc2Cl)c(Cl)c1 (configuration not stated) [Miconazole Nitrate] | jimpy (Plp1 jimpy) mouse iPSC-derived oligodendrocyte progenitor cells | not fulfilled |
| CCN(CC)CC#CCOC(=O)C(O)(c1ccccc1)C1CCCCC1 (configuration not stated) [Oxybutynin Chloride] | jimpy (Plp1 jimpy) mouse iPSC-derived oligodendrocyte progenitor cells | fulfilled |
| O=C(O)CP(=O)(O)O [Phosphonoacetic acid] | jimpy (Plp1 jimpy) mouse iPSC-derived oligodendrocyte progenitor cells | not fulfilled |
| N#C/C(=C1/SC[C@@H](c2ccc(Cl)cc2Cl)S1)n1ccnc1 [Luliconazole] | jimpy (Plp1 jimpy) mouse iPSC-derived oligodendrocyte progenitor cells | fulfilled |
| Clc1ccc(COC(Cn2ccnc2)c2ccc(Cl)cc2Cl)c(Cl)c1 (configuration not stated) [Miconazole] | jimpy (Plp1 jimpy) mouse iPSC-derived oligodendrocyte progenitor cells | not fulfilled |
| Nc1nccc2c1ncn2[C@@H]1O[C@H](CO)[C@@H](O)[C@H]1O [3-deazaadenosine] | jimpy (Plp1 jimpy) mouse iPSC-derived oligodendrocyte progenitor cells | not fulfilled |
| C=C1CC[C@H](O)C/C1=C/C=C1\CCC[C@]2(C)[C@@H]([C@H](C)/C=C/[C@H](C)C(C)C)CC[C@@H]12 [Vitamin D2] | jimpy (Plp1 jimpy) mouse iPSC-derived oligodendrocyte progenitor cells | fulfilled |
| CC(=O)O[C@]1(C(C)=O)CC[C@H]2[C@@H]3C=C(C)C4=CC(=O)CC[C@]4(C)[C@H]3CC[C@@]21C [Megestrol Acetate] | jimpy (Plp1 jimpy) mouse iPSC-derived oligodendrocyte progenitor cells | fulfilled |
| CCN(CC)CCOC(=O)C(c1ccccc1)c1ccccc1 [Adiphenine HCl] | jimpy (Plp1 jimpy) mouse iPSC-derived oligodendrocyte progenitor cells | fulfilled |
| Cc1ccc(C(=O)N(CCCN)[C@@H](c2oc3cc(Cl)ccc3c(=O)c2Cc2ccccc2)C(C)C)cc1 | jimpy (Plp1 jimpy) mouse iPSC-derived oligodendrocyte progenitor cells | not fulfilled |
| CC(=O)S[C@@H]1CC2=CC(=O)CC[C@]2(C)[C@H]2CC[C@@]3(C)[C@@H](CC[C@@]34CCC(=O)O4)[C@H]12 [Spironolactone] | jimpy (Plp1 jimpy) mouse iPSC-derived oligodendrocyte progenitor cells | fulfilled |
| CC(C)(C(=O)O)c1ccc(C(O)CCCN2CCC(C(O)(c3ccccc3)c3ccccc3)CC2)cc1 (configuration not stated) [Fexofenadine hydrochloride] | jimpy (Plp1 jimpy) mouse iPSC-derived oligodendrocyte progenitor cells | fulfilled |
| CC(NCCc1ccc(O)cc1)C(O)c1ccc(O)cc1 (configuration not stated) [Ritodrine HCl] | jimpy (Plp1 jimpy) mouse iPSC-derived oligodendrocyte progenitor cells | not fulfilled |
| CC1(C)NC(=O)N(c2ccc([N+](=O)[O-])c(C(F)(F)F)c2)C1=O [Nilutamide] | jimpy (Plp1 jimpy) mouse iPSC-derived oligodendrocyte progenitor cells | not fulfilled |
| Nc1n[n+]([O-])c2ccccc2[n+]1[O-] [Tirapazamine] | jimpy (Plp1 jimpy) mouse iPSC-derived oligodendrocyte progenitor cells | not fulfilled |
| CNC(=O)c1ccc(N2C(=S)N(c3ccc(C#N)c(C(F)(F)F)c3)C(=O)C2(C)C)cc1F [Enzalutamide (MDV3100)] | jimpy (Plp1 jimpy) mouse iPSC-derived oligodendrocyte progenitor cells | fulfilled |
| CC(C(O)c1ccc(O)cc1)N1CCC(Cc2ccccc2)CC1 (configuration not stated) [Ifenprodil tartrate] | jimpy (Plp1 jimpy) mouse iPSC-derived oligodendrocyte progenitor cells | fulfilled |
| C[C@H](N[C@@H](CCc1ccccc1)C(=O)O)C(=O)N1CCC[C@H]1C(=O)O [Enalaprilat dihydrate] | jimpy (Plp1 jimpy) mouse iPSC-derived oligodendrocyte progenitor cells | fulfilled |
| C[C@H](N[C@@H](CCc1ccccc1)C(=O)O)C(=O)N1CCC[C@H]1C(=O)O [Enalaprilat Dihydrate] | jimpy (Plp1 jimpy) mouse iPSC-derived oligodendrocyte progenitor cells | not fulfilled |
| CCCCCCCCCCCCCCCC(=O)OC[C@H](O)[C@H]1OC(=O)C(O)=C1O [L-Ascorbyl 6-palmitate] | jimpy (Plp1 jimpy) mouse iPSC-derived oligodendrocyte progenitor cells | not fulfilled |
| CC(=O)O[C@]1(C(C)=O)CC[C@H]2[C@@H]3C=C(Cl)C4=CC(=O)[C@@H]5C[C@@H]5[C@]4(C)[C@H]3CC[C@@]21C [Cyproterone acetate] | jimpy (Plp1 jimpy) mouse iPSC-derived oligodendrocyte progenitor cells | fulfilled |
| CC(C)(C(=O)O)c1ccc(C(O)CCCN2CCC(C(O)(c3ccccc3)c3ccccc3)CC2)cc1 (configuration not stated) [Fexofenadine HCl] | jimpy (Plp1 jimpy) mouse iPSC-derived oligodendrocyte progenitor cells | fulfilled |
| c1ccc(-c2[nH]ncc2-c2ccnc3ccccc23)nc1 | jimpy (Plp1 jimpy) mouse iPSC-derived oligodendrocyte progenitor cells | not fulfilled |
| CC(NCCc1ccc(O)cc1)C(O)c1ccc(O)cc1 (configuration not stated) [Ritodrine hydrochloride] | jimpy (Plp1 jimpy) mouse iPSC-derived oligodendrocyte progenitor cells | fulfilled |
| Clc1ccc(C(Cn2ccnc2)OCc2c(Cl)cccc2Cl)c(Cl)c1 (configuration not stated) [Isoconazole nitrate] | jimpy (Plp1 jimpy) mouse iPSC-derived oligodendrocyte progenitor cells | fulfilled |
| CN(C)c1ccc(/C=C2/C(=O)Nc3ccccc32)cc1 | jimpy (Plp1 jimpy) mouse iPSC-derived oligodendrocyte progenitor cells | fulfilled |
| N#CC[C@H](C1CCCC1)n1cc(-c2ncnc3[nH]ccc23)cn1 | jimpy (Plp1 jimpy) mouse iPSC-derived oligodendrocyte progenitor cells | fulfilled |
| CCN(CC)CC#CCOC(=O)C(O)(c1ccccc1)C1CCCCC1 (configuration not stated) [Oxybutynin chloride] | jimpy (Plp1 jimpy) mouse iPSC-derived oligodendrocyte progenitor cells | fulfilled |
| N[C@@H](CC(=O)N1CCn2c(nnc2C(F)(F)F)C1)Cc1cc(F)c(F)cc1F [Sitagliptin phosphate monohydrate] | jimpy (Plp1 jimpy) mouse iPSC-derived oligodendrocyte progenitor cells | fulfilled |
